Hello, the source for this data is patent US11986532B2, in case you need it.

Catalogue of compounds with associated DC50
system under test: BCL6 (Homo sapiens)
Construct: endogenous in cells; host or cells: T47D breast cancer epithelial cells
run description: Immunofluorescence protocol for high content imaging of BCL6 (degradation) in T47D cells, 3 days compound treatment
Type: cell-based
test conditions: T47D cells, 3 days compound treatment, read-out: Mean DC50 (nM)* category

Look over these answered cases.
# compound, DC50
records = [
    ("CCn1c(=O)c(OCC(=O)NC)cc2cc(Nc3nc(N4CCC(O[C@H]5C[C@H](N6CCC(c7ccc8c(c7)C(=O)N(C7CCC(=O)NC7=O)C8=O)CC6)C5)CC4)ncc3Cl)ccc21 (some centres unmarked)", "< 10 nM"),
    ("CNC(=O)COc1cc2cc(Nc3nc(N4CCN(CC5CCN(c6cc7c(c(OC)c6)C(=O)N(C6CCC(=O)NC6=O)C7)CC5)CC4)ncc3Cl)ccc2n(C(C)C)c1=O (centres unmarked)", "< 10 nM"),
    ("CNC(=O)COc1cc2cc(Nc3nc(N4CCC(O[C@H]5C[C@H](N6CCN(c7ccc8c(c7Cl)CN(C7CCC(=O)NC7=O)C8=O)CC6)C5)CC4)ncc3Cl)ccc2n(C(C)C)c1=O (some centres unmarked)", "< 10 nM"),
    ("CNC(=O)COc1cc2cc(Nc3nc(N4CCC(CN5CCC6(CCN(c7ccc8c(c7)CN(C7CCC(=O)NC7=O)C8=O)C6=O)C5)CC4)ncc3Cl)ccc2n(C(C)C)c1=O (centres unmarked)", "< 10 nM"),
]

Record CNC(=O)COc1cc2cc(Nc3nc(N4CCC(CN5CCC6(CN(c7ccc8c(c7)CN(C7CCC(=O)NC7=O)C8=O)C6)C(F)(F)C5)CC4)ncc3Cl)ccc2n(C(C)C)c1=O (centres unmarked) , field DC50: < 10 nM

Record CNC(=O)COc1cc2cc(Nc3nc(N4CCC(O[C@H]5C[C@H](N6CCC(c7cc(F)c8c(c7OC)CN(C7CCC(=O)NC7=O)C8=O)CC6)C5)CC4)ncc3Cl)ccc2n(C(C)C)c1=O (some centres unmarked) , field DC50: < 10 nM

Record CCNC(=O)COc1cc2cc(Nc3nc(N4CCC(CN5CCC6(CC5)CN(c5ccc7c(c5)C(=O)N(C5CCC(=O)NC5=O)C7=O)C6)CC4)ncc3Cl)ccc2n(C(C)C)c1=O (centres unmarked) , field DC50: ≥ 100 nM
